- Tested on: Hepatitis C virus
- method: Antiviral activity against chronic Hepatitis C virus type 2a infected in human HuH7 cells by Renilla luciferase reporter gene assay
- Format: functional, organism-based, Hepacivirus hominis
- experimental conditions: genotype 2a, Huh-7
measurement kind: pIC50
Lab note: report pIC50 as minus log10 of the concentration in molar units, number only.

### Prompt Recorded pIC50 of COC(=O)c1ccc2c(c1)c1c(n2CCc2nc3cc(C)c(C)cc3[nH]2)CCCC1 , please.
### Response 8.30

Others:
### Prompt Recorded pIC50 of CCc1cc(CC)nc(OCCCn2c3c(c4cc(C(=O)OC)ccc42)CCCC3)n1 , please.
### Response 8.82

### Prompt Next record, please: COc1cc(OC)nc(NCCCn2c3c(c4cc(C(=O)NC(C)C)ccc42)CCCC3)n1
### Response 6.82
